Molecular target: T1, Processed stabilized hMPV PreF trimer (115BV) (human metapneumovirus, strain B2)
T1 construct: also called Processed hMPV PreF trimer; processed PreF
Test: BLI, ratio to unprocessed PreF trimer
Measured processed/unprocessed PreF trimer binding ratio values are reported for all entries that follow.
readout.kind: processed/unprocessed PreF trimer binding ratio

binder: M2E11L (antibody, V domains shown) VH: QVQLVQSGAIMKKPGSSVKVSCKASGGTFTNFAFSWVRQAPGQGLEWMGGIIPFVGPANYAPQFQGRVTITADESTTTAYMELNSLRSEDTAVYYCARVRGFGETAYFYHYYMDVWGKGTTVTVSS VL: QTVVTQEPSLSVSPGGTVTLTCGLSSGSVSTSHFPSWYQQIPGQPPRTLIYSTITRSSGVPDRFSGSILGNKATLTITGAQADDECDYYCVLYLGGGIPHWVFGGGTKLTVL
observed: 0.49
--
binder: M2B04 (antibody, V domains shown, IgG) VH: QVQLVQSGPEVKKPGASVKVSCKASGYSITTYGIDWVRQAPGQGLEWIGWSSAHTGNTNYAEKFQGRVTMTTDTSTYTTYMELRSLKSDDTAVYYCAMGAYTSSRNWFDPWGQGTLVIVSS VL: EIVLTQSPATLSLSPGERATLSCRASQNINNFLAWYQQKAGQAPRLLIYDASNRATGIPGRFSGSGSGTDFTLTISSLEPEDFAVYYCQQRANWPLTFGGGTKVEVK
observed: 0.38
--
binder: M3A03 (antibody, V domains shown, IgG) VH: QVQLVQSGAEVKKPGASVKVSCKASAYTFTSYGITWVRQAPGQGLEWMGWISAYRGNTKYAQKLQGRVTMTTDTSTSTASMELRSLRSDDTAVYYCARTSYYDSSYYPIDYWGQGTLVTVSS VL: SYVLTQPPSVSVAPGQTARITCGGNNIGSKSVQWYQQKPGQAPVLVVYDDSDRPSGIPERFSGSNSGNTATLTISRVEAGDEADYYCQVWDSSGDRVVFGGGTKLTVL
observed: 0.23
